Tested on: S. aureus WCUH29
Test Description: MIC against S. aureus WCUH29
Type: cell-based
Protocol: The MIC (μg/ml) of compounds 1, 3 and 4 against various organisms was determined.
Kindly supply the reported MIC values for the records listed here.
Answers are plain numbers, in mg/L.

Compound: CCCCCCCN1CCC(NC(=O)Nc2ccnc3ccc(OC)nc23)CC1.O=C(O)C(=O)O [Example 7]
Reported Value: 1

Okay, here is my list. What is MIC for each of these?
1. CCCCCCCN1CC[C@H](NC(=O)Nc2ccnc3ccc(OC)cc23)[C@H](CO)C1.O=C(O)C(=O)O (relative stereo) [Example 5]
2. CCCCCC1CCC2CC(OC(=O)Nc3ccnc4ccc(OC)cc34)CCN2C1 (stereo not shown) [Example 1]
3. CCCCCCCN1CC[C@H](NC(=O)Nc2ccnc3ccc(OC)nc23)[C@H](CO)C1.O=C(O)C(=O)O (relative stereo) [Example 6]

1. 1
2. 4
3. 1
